tested on: Pseudomonas aeruginosa strain H1001 fliC::luxCDABE; test: Luminescence-based assay for the non-cleaved (bound) peptides on cellulose membranes; format: cell-based; conditions: cellulose-bound peptide, 0 min
Ends that are not written are not given here.
Returns one of rule met or rule not met; rule met when Luminescence at the given time in minutes: 0 is >= 5000 RLU.

>>> group_label("RARRVRVLIAIV [Bac036]")
"rule met"
>>> group_label("AAVRRRVRLVII [Bac010]")
"rule not met"
>>> group_label("RRVIAIAVRRLV [Bac050]")
"rule not met"
>>> group_label("VRLRIRVAVIRA-NH2 (C-terminus assumed) [Bac034]")
"rule met"
>>> group_label("VARIVVRLIRAR [Bac013]")
"rule not met"
>>> group_label("AVRAIRVLRVIR [Bac015]")
"rule not met"
>>> group_label("IVVRRRRAALVI [Bac030]")
"rule not met"
>>> group_label("ILRRVRVRAVAI-NH2 (C-terminus assumed) [Bac022]")
"rule not met"
>>> group_label("RVLIAARVIRRV [Bac047]")
"rule not met"
>>> group_label("VILARRRVRIAV [Bac017]")
"rule not met"
>>> group_label("RAVAVIIRLRRV-NH2 (C-terminus assumed) [Bac014]")
"rule met"
>>> group_label("RARIVRVRVILA [Bac016]")
"rule not met"
>>> group_label("RRIARVIVAVLR [Bac002]")
"rule not met"
>>> group_label("RVLRVVRAAIRI [Bac035]")
"rule met"
>>> group_label("IAARRLIRVVRV [Bac012]")
"rule not met"
>>> group_label("ARRARIRILVVV [Bac032]")
"rule not met"
>>> group_label("IRVRRLVAAVIR [Bac033]")
"rule not met"
>>> group_label("ILVARVIRRRVA [Bac019]")
"rule met"
>>> group_label("ARRLIVRVRVIA [Bac003]")
"rule not met"

====

test system: Pseudomonas aeruginosa PAO1 strain H103; details: PAO1
Ends that are not written are not given here.
MIC P. aerug: recorded values
outcome_measure: MIC P. aerug (µg/mL)

>>> result_value("RRWVIWRR-NH2 (C-terminus assumed) [Bac437]")
250
>>> result_value("LARIVVIRVAR-NH2 (C-terminus assumed) [Bac102]")
83
>>> result_value("RRWRIVVIRVRR-NH2 (C-terminus assumed) [Bac430]")
2
>>> result_value("RGARIVVIRVAR-NH2 (C-terminus assumed) [Bac225]")
31
>>> result_value("RRARIVVIRVAR-NH2 (C-terminus assumed) [Bac233]")
8

====

tested on: Pseudomonas aeruginosa strain H1001 fliC::luxCDABE; experiment: Luminescence-based assay for the non-cleaved (bound) peptides on cellulose membranes; assay type: cell-based; conditions: cellulose-bound peptide, 60 min
Ends that are not written are not given here.
Mark 1 for Luminescence at the given time in minutes: 60 under 4000 RLU, -1 if at or over.

>>> group_label("RARIVRVRVILA [Bac016]")
1
>>> group_label("VRLRIRVAVIRA-NH2 (C-terminus assumed) [Bac034]")
1
>>> group_label("LAIVRRARVRIV [Bac031]")
-1
>>> group_label("ILVIVRRRARAV [Bac042]")
1
>>> group_label("RAIRVRRIVLAV [Bac037]")
1
>>> group_label("RRVIAIAVRRLV [Bac050]")
-1
>>> group_label("ILVARVIRRRVA [Bac019]")
-1
>>> group_label("ARRARIRILVVV [Bac032]")
1
>>> group_label("IIRAALRRVRVV [Bac009]")
-1
>>> group_label("RVLIVIRARRVA-NH2 (C-terminus assumed) [Bac043]")
1
>>> group_label("VRIRARRVILVA-NH2 (C-terminus assumed) [Bac006]")
1
>>> group_label("IRVRRLVAAVIR [Bac033]")
-1
>>> group_label("RVLIAARVIRRV [Bac047]")
-1
>>> group_label("VILARRRVRIAV [Bac017]")
1
>>> group_label("RRVAIVVIARLR [Bac018]")
1
>>> group_label("VVIRAAIRRVRL [Bac038]")
-1
>>> group_label("RAVAVIIRLRRV-NH2 (C-terminus assumed) [Bac014]")
-1
>>> group_label("RRLVAIVAVRRI [Bac007]")
1
>>> group_label("VLIRIRRVARAV [Bac008]")
-1
>>> group_label("RRRVIVAVLARI [Bac046]")
1
>>> group_label("ARAILIRVVRRV [Bac025]")
1
>>> group_label("VVRALRRIIARV [Bac048]")
-1
>>> group_label("RARRVRVLIAIV [Bac036]")
1
>>> group_label("ARRLIVRVRVIA [Bac003]")
1
>>> group_label("IVVRRRRAALVI [Bac030]")
-1
>>> group_label("IRARIAVRRVVL [Bac004]")
-1
>>> group_label("IARRIVAVRLRV [Bac026]")
1
>>> group_label("IVRVAVALRRIR [Bac005]")
-1

Source listed as patent US20080207522A1.
